TARGET DESC: MATE1 (Homo sapiens)
Sequence (Q96FL8 1-570): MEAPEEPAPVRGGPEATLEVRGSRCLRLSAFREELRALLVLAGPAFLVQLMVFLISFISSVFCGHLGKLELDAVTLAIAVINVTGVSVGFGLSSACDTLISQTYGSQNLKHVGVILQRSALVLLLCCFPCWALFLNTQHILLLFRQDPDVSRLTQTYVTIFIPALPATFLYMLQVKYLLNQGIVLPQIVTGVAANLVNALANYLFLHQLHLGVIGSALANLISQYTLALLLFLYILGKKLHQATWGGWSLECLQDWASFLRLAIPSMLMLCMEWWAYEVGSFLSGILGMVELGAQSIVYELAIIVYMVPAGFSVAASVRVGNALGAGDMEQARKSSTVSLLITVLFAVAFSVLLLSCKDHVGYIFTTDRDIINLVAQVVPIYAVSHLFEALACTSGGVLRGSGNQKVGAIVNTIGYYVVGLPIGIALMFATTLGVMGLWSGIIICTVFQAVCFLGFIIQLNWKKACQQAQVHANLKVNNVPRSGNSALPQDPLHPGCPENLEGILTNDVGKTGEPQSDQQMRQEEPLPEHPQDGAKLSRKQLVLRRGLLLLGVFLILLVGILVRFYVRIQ
TEST SUMMARY: MATE1 inhibition in transfected HEK cells
Format: in vitro ADME
METRIC: IC50 (µM)
Answer with a number only, understood to be in µM.

IN: Note down IC50 recorded for CC(O)c1cc(C(=O)N[C@@H](C)Cn2ccc(-c3ccc(C#N)c(Cl)c3)n2)[nH]n1 (stereo partly shown) [Darolutamide, darolutamide]
OUT: 32.3
